System: OVCAR-4 ovarian
MEASUREMENT_DESCRIPTION: NCI tumour cell line growth inhibition, 384-well format
Measured TGI by item
QUANTITY_NAME: TGI (µM)

1) NC(=O)c1ccc2nc(-c3ccc(Oc4ccc(Cl)cc4)cc3)[nH]c2c1	37.1
2) O=C(Nc1cccc(Br)c1)Oc1ccc(Cl)c2cccnc12	15.9
3) CN(CC(=O)N(Cc1ccc(C2CCCCC2)cc1)c1ccc(C(=O)O)c(O)c1)S(=O)(=O)c1c(F)c(F)c(F)c(F)c1F	22.6
4) Cc1c(COc2cc(OCc3cccc(C#N)c3)c(CN3C[C@H](O)C[C@@H]3C(=O)O)cc2Cl)cccc1-c1ccc2c(c1)OCCO2	16

---

Test system: MALME-3M melanoma
MEASUREMENT_DESCRIPTION: NCI tumour cell line growth inhibition, 384-well format
QUANTITY_NAME: GI50

1) CCNC(=O)c1cc2c(-c3cc(C(C)(C)O)ccc3Oc3c(C)cc(F)cc3C)cn(C)c(=O)c2[nH]1	1150 nM
2) CCN(C(=O)c1cc(F)ccc1Oc1cncnc1N1CC2(CCN(CC3CCC(NS(=O)(=O)CC)CC3)CC2)C1)C(C)C (centres undefined)	> 100000 nM
3) CN(CC(=O)N(Cc1ccc(C2CCCCC2)cc1)c1ccc(C(=O)O)c(O)c1)S(=O)(=O)c1c(F)c(F)c(F)c(F)c1F	2520 nM
4) CC(=O)O[C@]1(C(C)=O)CC[C@H]2[C@@H]3C=C(C)C4=CC(=O)CC[C@]4(C)[C@H]3CC[C@@]21C	> 100000 nM

---

Tested on: NCI-H322M lung
MEASUREMENT_DESCRIPTION: NCI tumour cell line growth inhibition, 384-well format
QUANTITY_NAME: TGI (µM)

1. Cc1c(COc2cc(OCc3cccc(C#N)c3)c(CN3C[C@H](O)C[C@@H]3C(=O)O)cc2Cl)cccc1-c1ccc2c(c1)OCCO2	20.2
2. CN(CC(=O)N(Cc1ccc(C2CCCCC2)cc1)c1ccc(C(=O)O)c(O)c1)S(=O)(=O)c1c(F)c(F)c(F)c(F)c1F	12.6
3. CCNC(=O)c1cc2c(-c3cc(C(C)(C)O)ccc3Oc3c(C)cc(F)cc3C)cn(C)c(=O)c2[nH]1	11.9
4. O=C(Nc1cccc(Br)c1)Oc1ccc(Cl)c2cccnc12	31.4

The values you see were collected from PubChem BioAssay (NCI).
